- PROCEDURE TEXT: The inhibition of HCMV replication by digitoxin: The effect of digitoxin analogs on HCMV replication was tested. HFFs were infected with pp28-luciferase HCMV and treated with the compounds (Table 2, FIG. 2A). EC50, CC50 and selectivity index (SI) calculated as CC50/EC50 were determined for each compound. […] The compounds with the best SI were α-L rhamnose, α-L amicetose and mannose. Virus yield was determined for selected compounds (FIG. 2B), and a dose dependent effect on virus DNA yield was observed.
pEC50: −log10 of the molar value.
Label scheme for pEC50: lower than 7 is no, 7 and above is yes.

Take a look at these entries with their results.
COMPOUND	CAT
CC1OC(OC2C(O)CC(OC3C(O)CC(O[C@H]4CC[C@@]5(C)[C@H](CC[C@@H]6[C@@H]5CC[C@]5(C)[C@@H](C7=CC(=O)OC7)CC[C@]65O)C4)OC3C)OC2C)CC(OC2OC(C)[C@@H](OC3OC(C)[C@H](O)C(O)[C@H]3O)C(O)[C@H]2O)C1C (stereo partly drawn)	no
CC1OC(OC2C(O)CC(OC3C(O)CC(O[C@H]4CC[C@@]5(C)[C@H](CC[C@@H]6[C@@H]5CC[C@]5(C)[C@@H](C7=CC(=O)OC7)CC[C@]65O)C4)OC3C)OC2C)CC(OC2OC(C)[C@H](OC3OC(C)[C@@H](O)C[C@@H]3O)C[C@@H]2O)C1C (stereo partly drawn)	yes
CC1OC(OC2C(O)CC(OC3C(O)CC(O[C@H]4CC[C@@]5(C)[C@H](CC[C@@H]6[C@@H]5CC[C@]5(C)[C@@H](C7=CC(=O)OC7)CC[C@]65O)C4)OC3C)OC2C)CC(OC2OC(CO)[C@H](O)C(O)[C@@H]2O)C1C (stereo partly drawn)	yes

[ask] Please indicate if the recorded pEC50 for CC1OC(OC2C(C)OC(OC3C(O)CC(O[C@H]4CC[C@@]5(C)[C@H](CC[C@@H]6[C@@H]5CC[C@]5(C)[C@@H](C7=CC(=O)OC7)CC[C@]65O)C4)OC3C)C(C)C2O)CC(OC2OC(C)[C@@H](OC3OC(C)[C@H](OC4OC(C)[C@H](O)C(O)[C@H]4O)C(O)[C@H]3O)C(O)[C@H]2O)C1C (stereo partly drawn) meets or exceeds 7.
[reply] no

[ask] Lookup CC1OC(OC2C(O)CC(OC3C(O)CC(O[C@H]4CC[C@@]5(C)[C@H](CC[C@@H]6[C@@H]5CC[C@]5(C)[C@@H](C7=CC(=O)OC7)CC[C@]65O)C4)OC3C)OC2C)CC(OC2OC(C)[C@@H](O)C[C@H]2O)C1C (stereo partly drawn)
[reply] yes

[ask] Lookup CC1OC(OC2C(O)CC(OC3C(O)CC(O[C@H]4CC[C@@]5(C)[C@H](CC[C@@H]6[C@@H]5CC[C@]5(C)[C@@H](C7=CC(=O)OC7)CC[C@]65O)C4)OC3C)OC2C)CC(OC2OC(C)[C@@H](OC3OC(C)[C@H](O)C[C@H]3O)C[C@H]2O)C1C (stereo partly drawn)
[reply] no

[ask] Lookup CC1OC(OC2C(O)CC(OC3C(O)CC(O[C@H]4CC[C@@]5(C)[C@H](CC[C@@H]6[C@@H]5CC[C@]5(C)[C@@H](C7=CC(=O)OC7)CC[C@]65O)C4)OC3C)OC2C)CC(OC2OC(C)[C@@H](O)C(O)[C@H]2O)C1C (stereo partly drawn)
[reply] yes

* * *

- PROCEDURE TEXT: The inhibition of HCMV replication by digitoxin: The effect of digitoxin analogs on HCMV replication was tested. HFFs were infected with pp28-luciferase HCMV and treated with the compounds (Table 2, FIG. 2A). EC50, CC50 and selectivity index (SI) calculated as CC50/EC50 were determined for each compound. […] The compounds with the best SI were α-L rhamnose, α-L amicetose and mannose. Virus yield was determined for selected compounds (FIG. 2B), and a dose dependent effect on virus DNA yield was observed.
Documented EC50 across a set of molecules
Answer with a number only, understood to be in nM.

Some molecules with known EC50 results, for comparison:
MOLECULE	QUANTITY UNIT	EC50
CC1OC(OC2C(O)CC(OC3C(O)CC(O[C@H]4CC[C@@]5(C)[C@H](CC[C@@H]6[C@@H]5CC[C@]5(C)[C@@H](C7=CC(=O)OC7)CC[C@]65O)C4)OC3C)OC2C)CC(OC2OC(C)[C@H](O)C(O)[C@@H]2O)C1C (some centres undefined)	nM	4.77
CC1OC(OC2C(C)OC(OC3C(O)CC(O[C@H]4CC[C@@]5(C)[C@H](CC[C@@H]6[C@@H]5CC[C@]5(C)[C@@H](C7=CC(=O)OC7)CC[C@]65O)C4)OC3C)C(C)C2O)CC(OC2OC(C)[C@@H](OC3OC(C)[C@H](OC4OC(C)[C@H](O)C[C@H]4O)C[C@H]3O)C[C@H]2O)C1C (some centres undefined)	nM	2080
CC1OC(OC2C(O)CC(OC3C(O)CC(O[C@H]4CC[C@@]5(C)[C@H](CC[C@@H]6[C@@H]5CC[C@]5(C)[C@@H](C7=CC(=O)OC7)CC[C@]65O)C4)OC3C)OC2C)CC(OC2OC(C)[C@H](OC3OC(C)[C@@H](O)C(O)[C@@H]3O)C(O)[C@@H]2O)C1C (some centres undefined)	nM	36.7

// moving on: another record for EC50
[ask] Requested read-out: EC50. Entry: CC1OC(OC2C(C)OC(OC3C(O)CC(O[C@H]4CC[C@@]5(C)[C@H](CC[C@@H]6[C@@H]5CC[C@]5(C)[C@@H](C7=CC(=O)OC7)CC[C@]65O)C4)OC3C)C(C)C2O)CC(OC2OC(C)[C@H](OC3OC(C)[C@@H](OC4OC(C)[C@@H](O)C(O)[C@@H]4O)C(O)[C@@H]3O)C(O)[C@@H]2O)C1C (some centres undefined)
[reply] 233
